# system name: human complement protein C3 (human, UniProt P01024 23-1663)
# Sequence (P01024 23-1663 limits assumed): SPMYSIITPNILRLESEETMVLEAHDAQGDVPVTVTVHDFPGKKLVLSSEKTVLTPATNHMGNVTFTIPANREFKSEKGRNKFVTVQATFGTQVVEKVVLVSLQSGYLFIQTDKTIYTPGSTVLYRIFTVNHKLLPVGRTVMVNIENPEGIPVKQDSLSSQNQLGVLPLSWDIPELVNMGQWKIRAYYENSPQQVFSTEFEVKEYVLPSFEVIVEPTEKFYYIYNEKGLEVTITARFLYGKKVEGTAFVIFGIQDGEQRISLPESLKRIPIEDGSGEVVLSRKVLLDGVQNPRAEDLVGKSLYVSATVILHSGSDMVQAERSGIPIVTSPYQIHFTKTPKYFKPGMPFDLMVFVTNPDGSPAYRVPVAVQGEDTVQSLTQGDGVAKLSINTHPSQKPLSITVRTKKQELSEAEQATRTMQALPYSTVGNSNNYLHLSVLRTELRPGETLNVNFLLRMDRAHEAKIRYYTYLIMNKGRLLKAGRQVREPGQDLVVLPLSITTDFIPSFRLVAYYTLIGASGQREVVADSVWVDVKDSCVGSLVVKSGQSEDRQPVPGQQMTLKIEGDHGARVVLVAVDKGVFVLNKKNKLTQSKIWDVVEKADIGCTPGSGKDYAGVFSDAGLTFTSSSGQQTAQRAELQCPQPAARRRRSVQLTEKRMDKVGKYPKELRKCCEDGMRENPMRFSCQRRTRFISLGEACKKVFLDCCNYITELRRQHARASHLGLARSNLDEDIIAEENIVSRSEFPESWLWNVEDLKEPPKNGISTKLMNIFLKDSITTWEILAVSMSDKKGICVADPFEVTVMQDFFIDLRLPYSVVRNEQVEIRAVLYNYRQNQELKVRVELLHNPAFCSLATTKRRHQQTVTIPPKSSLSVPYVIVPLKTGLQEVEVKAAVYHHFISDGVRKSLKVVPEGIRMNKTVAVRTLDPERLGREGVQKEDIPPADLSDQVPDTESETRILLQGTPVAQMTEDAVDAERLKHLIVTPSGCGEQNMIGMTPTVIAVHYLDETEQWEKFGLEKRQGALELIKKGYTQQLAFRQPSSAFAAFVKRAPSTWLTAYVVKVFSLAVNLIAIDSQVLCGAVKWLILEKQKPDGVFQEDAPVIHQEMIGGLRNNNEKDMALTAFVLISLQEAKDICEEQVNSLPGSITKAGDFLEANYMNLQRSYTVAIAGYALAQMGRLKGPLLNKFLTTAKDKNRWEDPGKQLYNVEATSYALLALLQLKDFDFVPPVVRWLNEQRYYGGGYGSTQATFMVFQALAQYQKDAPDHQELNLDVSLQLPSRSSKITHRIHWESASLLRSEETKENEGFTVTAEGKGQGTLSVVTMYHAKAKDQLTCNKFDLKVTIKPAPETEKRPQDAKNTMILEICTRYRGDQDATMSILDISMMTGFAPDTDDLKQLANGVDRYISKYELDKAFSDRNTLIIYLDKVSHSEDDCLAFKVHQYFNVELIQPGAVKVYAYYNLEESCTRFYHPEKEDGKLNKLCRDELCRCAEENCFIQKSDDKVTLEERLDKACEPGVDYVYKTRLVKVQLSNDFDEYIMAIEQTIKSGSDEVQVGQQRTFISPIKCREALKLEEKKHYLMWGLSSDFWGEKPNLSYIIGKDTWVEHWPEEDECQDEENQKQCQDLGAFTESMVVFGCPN
# assay details: cell-based or functional assay
Bridge positions count the residues as written; N and C are the ends. Square brackets hold non-standard residues; d marks the D form. Nal = 1-naphthylalanine or 2-naphthylalanine; Aal = not defined here; Sea = not defined here
Entries and their measured Lysis IC50 follow.

# binder, Lysis IC50 (nM)
measured = [
    ("Ac-ICVWQDWG[Aal]HRCT-NH2 (disulfide 2-12; reading uncertain; also: printed as Ac-ICVWQDWG{Aal}HRCT-NH2) [Peptide 2.4, Ac-ICVWQDWG{Aal}HRCT-NH2]", 700),
    ("Ac-ERICVWQDWG[Nal]HRCT-NH2 (disulfide 4-14; not fully specified; printed as Ac-ER-ICVWQDWG{Nal}HRCT-NH2) [Peptide 4.1, Ac-ER-ICVWQDWG{Nal}HRCT-NH2]", 2300),
    ("Ac-ICVWQDWG[Sea]HRCT-NH2 (disulfide 2-12; reading uncertain; also: printed as Ac-ICVWQDWG{Sea}HRCT-NH2) [Peptide 2.5, Ac-ICVWQDWG{Sea}HRCT-NH2]", 500),
    ("Ac-NNLCVWQDWGAHRCT-NH2 (disulfide 4-14; SMILES CC(=O)N[C@@H](CC(N)=O)C(=O)N[C@@H](CC(N)=O)C(=O)N[C@@H](CC(C)C)C(=O)N[C@H]1CSSC[C@@H](C(=O)N[C@H](C(N)=O)[C@@H](C)O)NC(=O)[C@H](CCCNC(=N)N)NC(=O)[C@H](Cc2c[nH]cn2)NC(=O)[C@H](C)NC(=O)CNC(=O)[C@H](Cc2c[nH]c3ccccc23)NC(=O)[C@H](CC(=O)O)NC(=O)[C@H](CCC(N)=O)NC(=O)[C@H](Cc2c[nH]c3ccccc23)NC(=O)[C@H](C(C)C)NC1=O) [Peptide 3.2, Ac-NN-LCVWQDWGAHRCT-NH2]", 300),
    ("Ac-RSICV[Nal]QDWG[Nal]HRCT-NH2 (disulfide 4-14; not fully specified; printed as Ac-RSICV{Nal}QDWG{Nal}HRCT-NH2) [Peptide 4.8, Ac-RS-ICV{Nal}QDWG{Nal}HRCT-NH2]", 2800),
    ("Ac-NRLCVWQDWGAHRCT-NH2 (disulfide 4-14; SMILES CC(=O)N[C@@H](CC(N)=O)C(=O)N[C@@H](CCCNC(=N)N)C(=O)N[C@@H](CC(C)C)C(=O)N[C@H]1CSSC[C@@H](C(=O)N[C@H](C(N)=O)[C@@H](C)O)NC(=O)[C@H](CCCNC(=N)N)NC(=O)[C@H](Cc2c[nH]cn2)NC(=O)[C@H](C)NC(=O)CNC(=O)[C@H](Cc2c[nH]c3ccccc23)NC(=O)[C@H](CC(=O)O)NC(=O)[C@H](CCC(N)=O)NC(=O)[C@H](Cc2c[nH]c3ccccc23)NC(=O)[C@H](C(C)C)NC1=O) [Peptide 3.3, Ac-NR-LCVWQDWGAHRCT-NH2]", 300),
]

Origin of measurements: patent US20150329594A1
